- TARGET ENTITY: sigma receptor ([3H](+)-3-PPP site) (Cavia porcellus)
- Construct: frozen guinea pig brains; tissue PelFreez Biologicals, Rogers, AK; host or cells: guinea pig brain membranes
- Sequence (Q60492 whole entry): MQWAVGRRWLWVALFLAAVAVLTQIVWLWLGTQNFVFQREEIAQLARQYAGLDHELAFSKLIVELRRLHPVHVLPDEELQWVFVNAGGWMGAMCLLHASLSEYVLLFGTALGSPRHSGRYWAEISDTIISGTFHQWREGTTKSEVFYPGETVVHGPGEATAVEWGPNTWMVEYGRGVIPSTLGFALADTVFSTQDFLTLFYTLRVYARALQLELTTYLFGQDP
- ASSAY INFO: In Vitro Sigma Receptor Binding, [3H](+)-3-PPP
- Design: species or system guinea pig
- ASSAY SETUP: guinea pig brain; 45 minutes at 25° C.; read-out: Sigma [3H](+)-3-PPP binding IC50
- Procedure: For both assays frozen guinea pig brains (PelFreez Biologicals, Rogers, AK) were thawed and homogenized in 10 volumes (w/v) of ice cold 0.32M sucrose using 10 strokes of a motor-drivenglass-fitted teflon pestle adjusted to 600 rpm. […] Binding reactions were initiated by the addition of tissue (800 μL) to tubes containing assay buffer, the radioligand (final concentration 1-3 nM) and the compound of interest. […] Radioactivity trapped on the filters was determined using routine methods. […]
Overview of reported pIC50 across a group of compounds:
Keep it numeric: pIC50 is minus log10 of the concentration in mol/L.

1. Fc1ccc(CCCCN2C3CCCC2c2c([nH]c4ccc(F)cc24)C3)cc1 (stereo not drawn) :: 6.82

Here is the next item to consider.
Exercise: Consider the compound shown here: CC(CCc1ccccc1)N1C2CCC1c1c([nH]c3ccccc13)C2 (single isomer, unassigned) [1 (high Rf) H H CH(CH3)(CH2)2 Ph 2] What is its recorded pIC50?
Key: 5.82
